Data origin: the supplement of paper PMC10065799

- Measured On: FGFR1 (UniProt P11362)
- Sequence (P11362 whole entry, looked up): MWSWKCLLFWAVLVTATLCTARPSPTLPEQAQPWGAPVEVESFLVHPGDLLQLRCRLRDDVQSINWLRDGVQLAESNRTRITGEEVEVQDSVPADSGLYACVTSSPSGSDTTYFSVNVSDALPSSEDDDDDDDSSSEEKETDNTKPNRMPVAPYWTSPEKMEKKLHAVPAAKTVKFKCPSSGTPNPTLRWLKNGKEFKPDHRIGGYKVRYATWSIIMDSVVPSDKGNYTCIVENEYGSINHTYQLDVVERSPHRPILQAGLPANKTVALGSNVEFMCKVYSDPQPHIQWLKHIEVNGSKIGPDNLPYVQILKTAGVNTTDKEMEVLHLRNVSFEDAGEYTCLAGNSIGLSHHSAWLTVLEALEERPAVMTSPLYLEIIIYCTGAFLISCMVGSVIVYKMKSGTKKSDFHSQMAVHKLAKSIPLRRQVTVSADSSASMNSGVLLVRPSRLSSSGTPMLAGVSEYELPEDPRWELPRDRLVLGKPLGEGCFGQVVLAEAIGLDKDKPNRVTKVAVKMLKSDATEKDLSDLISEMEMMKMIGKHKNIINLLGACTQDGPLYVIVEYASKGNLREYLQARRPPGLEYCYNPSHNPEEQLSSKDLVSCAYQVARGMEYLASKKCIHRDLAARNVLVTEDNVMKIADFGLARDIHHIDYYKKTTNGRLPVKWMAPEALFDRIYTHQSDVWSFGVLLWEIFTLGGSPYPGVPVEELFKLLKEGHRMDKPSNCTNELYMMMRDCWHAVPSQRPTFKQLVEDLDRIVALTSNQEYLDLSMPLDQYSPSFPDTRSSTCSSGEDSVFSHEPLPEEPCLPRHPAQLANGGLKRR
- Test Summary: phosphorylation enrichment, bacterial display (enrichment ratio); higher = better substrate or ligand; peptides without Tyr show the background
Note: every record was labeled by where its phosphorylation enrichment sits among lower segment = under 0.5, middle segment = from 0.5 up to 0.7, upper segment = 0.7 and over

Examples with answers:
Residue Codes: RSSNTYTLMDV [ALCAM_Y298_T301M]
Group Label: upper segment
//
Residue Codes: ADSLRYIYPKL [EIF2B3_Y92]
Group Label: lower segment
//
Residue Codes: PQAVTYATVKH [LILRB4_Y360_K362T]
Group Label: lower segment

Prompt line: Entry LFSINYLHFGE [KDM4C_Y201_YF] belongs to which category?
Response line: upper segment

Prompt line: Please let me know in which category the item SLLVVYPWTQR [HBB_Y36_R31S] belongs.
Response line: lower segment

Prompt line: Which category does the recorded phosphorylation enrichment put TAALWYIFSHT [ENG_Y612_YF] in?
Response line: middle segment

###

Entries and their phosphorylation enrichment values follow.
- Measured On: Jak2 (UniProt O60674)
- Sequence (O60674 whole entry, looked up): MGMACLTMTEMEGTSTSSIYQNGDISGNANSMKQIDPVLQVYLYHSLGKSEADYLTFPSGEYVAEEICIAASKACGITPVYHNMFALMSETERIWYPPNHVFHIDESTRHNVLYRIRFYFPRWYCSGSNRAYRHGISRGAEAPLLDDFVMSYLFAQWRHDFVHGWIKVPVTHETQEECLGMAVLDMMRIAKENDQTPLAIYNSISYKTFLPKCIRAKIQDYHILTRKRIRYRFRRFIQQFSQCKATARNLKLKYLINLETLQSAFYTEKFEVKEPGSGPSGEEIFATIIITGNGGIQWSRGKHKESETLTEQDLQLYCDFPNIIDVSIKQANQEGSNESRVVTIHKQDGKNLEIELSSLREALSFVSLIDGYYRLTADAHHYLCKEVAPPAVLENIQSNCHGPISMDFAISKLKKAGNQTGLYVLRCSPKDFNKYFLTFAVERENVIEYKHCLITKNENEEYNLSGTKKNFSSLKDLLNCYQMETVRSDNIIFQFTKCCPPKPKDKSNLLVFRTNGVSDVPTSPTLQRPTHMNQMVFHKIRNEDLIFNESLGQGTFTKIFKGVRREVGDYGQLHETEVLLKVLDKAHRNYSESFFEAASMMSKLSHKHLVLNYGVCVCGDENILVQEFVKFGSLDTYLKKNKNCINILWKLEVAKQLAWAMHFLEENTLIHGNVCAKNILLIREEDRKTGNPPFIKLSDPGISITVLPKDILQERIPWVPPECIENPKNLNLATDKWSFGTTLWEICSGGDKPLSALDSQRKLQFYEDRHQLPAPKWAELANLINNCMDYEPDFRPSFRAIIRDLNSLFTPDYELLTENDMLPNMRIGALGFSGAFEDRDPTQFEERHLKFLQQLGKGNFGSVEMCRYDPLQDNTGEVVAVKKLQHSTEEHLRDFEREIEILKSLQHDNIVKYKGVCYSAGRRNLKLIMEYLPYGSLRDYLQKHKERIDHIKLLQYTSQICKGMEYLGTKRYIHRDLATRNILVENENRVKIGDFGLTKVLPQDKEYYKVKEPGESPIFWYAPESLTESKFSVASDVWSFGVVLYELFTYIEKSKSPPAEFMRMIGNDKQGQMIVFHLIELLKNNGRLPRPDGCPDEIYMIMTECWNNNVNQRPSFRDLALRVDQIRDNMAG
- Test Summary: phosphorylation enrichment, bacterial display (enrichment ratio); higher = better substrate or ligand; peptides without Tyr show the background
Output spec: single numeric token, no unit.

// solved cases for phosphorylation enrichment follow
Residue Codes: GRTGHYLCNAC [GATA1_Y223_D218G]
Measured On: Jak2 (UniProt O60674)
phosphorylation enrichment: 0.446
//
Residue Codes: IPQEEYTATGL
Measured On: Jak2 (UniProt O60674)
phosphorylation enrichment: 0.955

Prompt line: Which phosphorylation enrichment value is on record for LVMFFYAIFGM [SCN1A_Y1684_I1683F] ?
Response line: 1.06

###

- Measured On: Hck (UniProt P08631)
- Sequence (P08631 whole entry, looked up): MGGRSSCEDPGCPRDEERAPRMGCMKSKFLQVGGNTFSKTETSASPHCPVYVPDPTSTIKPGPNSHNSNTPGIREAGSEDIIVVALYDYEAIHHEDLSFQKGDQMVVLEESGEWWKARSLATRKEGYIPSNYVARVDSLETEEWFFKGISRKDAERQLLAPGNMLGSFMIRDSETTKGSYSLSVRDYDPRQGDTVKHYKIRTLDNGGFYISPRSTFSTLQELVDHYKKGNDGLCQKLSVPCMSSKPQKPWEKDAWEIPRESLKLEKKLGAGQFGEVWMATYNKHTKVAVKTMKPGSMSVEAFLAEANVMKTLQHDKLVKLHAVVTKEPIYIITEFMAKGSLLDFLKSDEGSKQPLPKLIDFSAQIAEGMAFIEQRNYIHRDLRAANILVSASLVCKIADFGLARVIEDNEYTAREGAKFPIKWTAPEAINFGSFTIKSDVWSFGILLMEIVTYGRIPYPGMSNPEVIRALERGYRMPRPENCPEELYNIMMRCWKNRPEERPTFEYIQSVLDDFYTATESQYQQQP
- Test Summary: phosphorylation enrichment, bacterial display (enrichment ratio); higher = better substrate or ligand; peptides without Tyr show the background
# binarize phosphorylation enrichment: threshold 0.5 inclusive, high side rule met, low side rule not met

Residue Codes: KLFRVYCDMNT [FGB_Y269_P265L_YF]
Group Label: rule not met
//
Residue Codes: YDGKDYIALNE [HLA-A_Y147]
Group Label: rule met
//
Residue Codes: SFLSFYTSHVQ [NEFL_Y443_P440L_YF]
Group Label: rule not met
//
Residue Codes: GGDGSYVSVPS [TNNI3K_Y425]
Group Label: rule not met
//
Residue Codes: VGTKRYMALEV [ACVRL1_Y375_P378L]
Group Label: rule not met
//
Residue Codes: KPGVNYFFQVS
Group Label: rule met

Prompt line: Is reported phosphorylation enrichment greater than or equal to 0.5 here: HNMPIYEGYAL [ACTA1_Y168_V165M]
Response line: rule met

Prompt line: Please tell me: is the sequence GSSKIYFLHPD [TLR5_Y108] at or over 0.5 in terms of phosphorylation enrichment?
Response line: rule met

###

- Measured On: SHP2-C SH2
- Test Summary: SH2 binding enrichment of the phosphorylated peptide, bacterial display (enrichment ratio); higher = better substrate or ligand; peptides without Tyr show the background
So basically: SH2 binding enrichment at 0.8 or higher? That is MET. Lower than 0.8? That is NOT MET.

Observe how each entry below is paired with its result.
Residue Codes: ERWLKYFPIEQ [HS3ST5_Y244]
Group Label: MET
//
Residue Codes: AAETTYDKILK [GDNF_Y156]
Group Label: MET
//
Residue Codes: EYDRLYEEYTR [PIK3R1_Y467]
Group Label: NOT MET

Please find the next sequence below.
Prompt line: Determine whether this sequence has SH2 binding enrichment no lower than 0.8: REENGYNTFAS [FGF10_Y161_I156R_YF]
Response line: NOT MET
